Target: sweet taste receptor (T1R2/T1R3) (Homo sapiens, UniProt Q7RTX0+Q8TE23)
Construct: endogenous in cells; host or cells: taste cells in the mouths of 3 trained human panelists (in vivo spitting test)
Sequence (Q8TE23 20-839): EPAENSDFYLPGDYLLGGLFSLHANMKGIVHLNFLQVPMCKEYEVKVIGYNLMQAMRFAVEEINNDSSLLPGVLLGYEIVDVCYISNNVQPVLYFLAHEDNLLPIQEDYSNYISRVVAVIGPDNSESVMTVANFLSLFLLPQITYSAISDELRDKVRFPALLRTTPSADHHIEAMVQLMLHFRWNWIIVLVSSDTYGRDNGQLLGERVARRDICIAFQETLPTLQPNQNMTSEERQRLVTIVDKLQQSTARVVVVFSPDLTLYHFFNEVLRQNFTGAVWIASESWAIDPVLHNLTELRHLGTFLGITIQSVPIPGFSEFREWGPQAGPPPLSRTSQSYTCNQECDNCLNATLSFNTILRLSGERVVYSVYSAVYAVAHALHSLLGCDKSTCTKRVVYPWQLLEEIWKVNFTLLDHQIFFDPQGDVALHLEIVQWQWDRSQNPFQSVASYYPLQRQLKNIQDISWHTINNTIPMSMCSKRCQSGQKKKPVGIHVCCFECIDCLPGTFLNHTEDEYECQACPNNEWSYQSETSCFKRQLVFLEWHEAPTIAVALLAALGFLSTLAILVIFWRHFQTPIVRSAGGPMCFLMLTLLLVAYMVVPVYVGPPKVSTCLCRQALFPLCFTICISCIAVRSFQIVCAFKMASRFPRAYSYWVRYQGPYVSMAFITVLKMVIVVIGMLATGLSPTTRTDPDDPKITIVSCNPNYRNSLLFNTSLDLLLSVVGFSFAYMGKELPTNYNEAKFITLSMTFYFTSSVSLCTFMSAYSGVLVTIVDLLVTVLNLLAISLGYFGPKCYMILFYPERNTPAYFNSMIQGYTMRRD
Sequence (Q7RTX0 21-852): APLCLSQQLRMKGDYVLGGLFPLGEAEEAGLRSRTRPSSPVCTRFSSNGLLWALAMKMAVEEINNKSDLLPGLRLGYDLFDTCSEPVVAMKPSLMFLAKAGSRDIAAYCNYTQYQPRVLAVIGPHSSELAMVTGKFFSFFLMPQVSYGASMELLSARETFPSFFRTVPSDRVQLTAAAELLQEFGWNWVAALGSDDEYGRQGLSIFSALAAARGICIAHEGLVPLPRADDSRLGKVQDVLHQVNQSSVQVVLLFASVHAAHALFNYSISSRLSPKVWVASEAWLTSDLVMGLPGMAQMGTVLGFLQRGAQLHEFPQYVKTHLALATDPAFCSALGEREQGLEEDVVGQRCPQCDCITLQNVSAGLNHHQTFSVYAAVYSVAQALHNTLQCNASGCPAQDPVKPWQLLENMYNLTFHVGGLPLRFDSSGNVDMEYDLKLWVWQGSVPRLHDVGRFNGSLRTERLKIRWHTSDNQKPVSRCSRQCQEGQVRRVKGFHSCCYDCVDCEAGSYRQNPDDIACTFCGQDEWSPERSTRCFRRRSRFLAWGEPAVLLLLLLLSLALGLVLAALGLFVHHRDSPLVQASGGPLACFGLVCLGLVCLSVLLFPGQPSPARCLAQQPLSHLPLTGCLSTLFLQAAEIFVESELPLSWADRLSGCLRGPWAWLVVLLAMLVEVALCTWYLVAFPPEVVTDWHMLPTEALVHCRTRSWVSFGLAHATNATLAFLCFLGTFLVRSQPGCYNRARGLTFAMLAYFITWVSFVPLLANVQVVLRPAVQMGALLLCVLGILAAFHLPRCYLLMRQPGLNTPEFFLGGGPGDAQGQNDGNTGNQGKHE
Test: Sensory evaluation of sweetness intensity (VAS) in the co-presence of sweet taste receptor inhibitor lactisole (Example 5)
Assay type: in vivo
Details: lactisole-free solution = 100%; sucrose 8 w/v %, sucralose 149 ppm, D- or L-arabinose 13.3 w/v %; VAS, average of n=3
Entries annotated with measured Sweetness intensity residual ratio (%) with addition of 100 ppm lactisole
Quantity Name: Sweetness intensity residual ratio (%) with addition of 100 ppm lactisole

INSERT INTO measurements (molecule, subject_of_test, measured_number) VALUES
  ('O=C[C@H](O)[C@@H](O)[C@@H](O)CO', 'sweet taste receptor (T1R2/T1R3) (Homo sapiens, UniProt Q7RTX0+Q8TE23)', 34.43),
  ('OC[C@H]1O[C@@](CO)(O[C@H]2O[C@H](CO)[C@@H](O)[C@H](O)[C@H]2O)[C@@H](O)[C@@H]1O', 'sweet taste receptor (T1R2/T1R3) (Homo sapiens, UniProt Q7RTX0+Q8TE23)', 29.05),
  ('O=C[C@@H](O)[C@H](O)[C@H](O)CO', 'sweet taste receptor (T1R2/T1R3) (Homo sapiens, UniProt Q7RTX0+Q8TE23)', 42.47),
  ('OC[C@H]1O[C@H](O[C@]2(CCl)O[C@H](CCl)[C@@H](O)[C@@H]2O)[C@H](O)[C@@H](O)[C@H]1Cl', 'sweet taste receptor (T1R2/T1R3) (Homo sapiens, UniProt Q7RTX0+Q8TE23)', 8.99);
